Assay: Lipophilicity (LogD7.4), shake-flask method
Conditions: pH 7.4
ASSAY METRIC: logD
No unit in the answer, please; the number alone is enough.

(Q) Entry C[C@@H](O)[C@@H]1NC(=O)[C@H](CCCCN)NC(=O)[C@@H](Cc2c[nH]c3ccccc23)NC(=O)[C@H](Cc2ccc(O)cc2)NC(=O)[C@@H](NC(=O)[C@@H](Cc2ccccc2)NC(=O)CCOCCOCCOCCOCCON=Cc2ccc(CNC(=O)OC3CCCc4cnnc(-c5ccc(CC(=O)NCC[N+](C)(C)C[B-](F)(F)F)cc5)c4CC3)cc2)CSSC[C@@H](C(=O)N[C@H](CO)[C@@H](C)O)NC1=O (stereo partly shown) [[18F]5 (ox.), AmBF3-PEG4-TOC] has what logD?
(A) 0.58
